- subject.of.test: HLA-A*01:01
- experimental.protocol: IEDB peptide-MHC binding, purified MHC/competitive/radioactivity; filed as Kd, often an IC50 or EC50 that approximates it; bounds were set here for any values at or beyond the usual limits of such assays
- test.conditions: source organism: Dengue virus 4 Philippines/H241/1956
observable: pKd
Answer as the number alone; pKd is minus log10 of concentration in mol/L.

Ask: Report measured pKd on HLA-A*01:01; entry: TTERGGKAY
Result: 6.04

---

- subject.of.test: HLA-A*32:01
- experimental.protocol: IEDB peptide-MHC binding, purified MHC/competitive/radioactivity; filed as Kd, often an IC50 or EC50 that approximates it; bounds were set here for any values at or beyond the usual limits of such assays
- test.conditions: source organism: Dengue virus 4 Dominica/814669/1981
observable: Kd (nM)
Write the value in nM as a bare number.

Ask: Provide only the value of recorded Kd for ILLKIVTQF
Result: 412

---

- subject.of.test: HLA-A*31:01
- experimental.protocol: IEDB peptide-MHC binding, purified MHC/competitive/radioactivity; filed as Kd, often an IC50 or EC50 that approximates it; bounds were set here for any values at or beyond the usual limits of such assays
- test.conditions: source organism: Dengue virus 1 Brazil/97-11/1997
observable: pKd
Recall that pKd is obtained by taking minus log10 of the concentration measured in molar.

Ask: Output pKd of KSAAIDGEYR
Result: 8.39

---

- subject.of.test: HLA-A*26:01
- experimental.protocol: IEDB peptide-MHC binding, purified MHC/competitive/radioactivity; filed as Kd, often an IC50 or EC50 that approximates it; bounds were set here for any values at or beyond the usual limits of such assays
- test.conditions: source organism: Lymphocytic choriomeningitis virus (strain Armstrong)
Would you kindly list Kd for each of these sequences?

Ask: Supply measured Kd of VKIPTHRHI in your reply.
Result: ≥ 77.9 µM

Ask: Tell me measured Kd for QFIHFYREPV please.
Result: ≥ 69.7 µM

Ask: Answer with reported Kd of KTGESSRCY
Result: ≥ 77.9 µM

Ask: Annotate the sequence QYVRSGKDHV with its measured Kd.
Result: ≥ 69.7 µM

Ask: For the sequence DSEEYHLLY , give its reported Kd.
Result: 14.4 µM

---

Provide the reported Kd of each item.
- subject.of.test: HLA-B*08:01
- experimental.protocol: IEDB peptide-MHC binding, purified MHC/competitive/radioactivity; filed as Kd, often an IC50 or EC50 that approximates it; bounds were set here for any values at or beyond the usual limits of such assays
- test.conditions: source organism: Vaccinia virus WR
Give the number; nM is assumed, so skip it.

Ask: Please look at this sequence and report its Kd: KTLKYSNKI
Result: 1180

Ask: Write down Kd measured for item SAKRITESI
Result: 119

Ask: Return the recorded Kd value; entry: NVMKRINCF
Result: 19.8

Ask: Annotate the sequence ALRSRIREL with its measured Kd.
Result: 0.455

Ask: Supply measured Kd of SCKVKIVPL in your reply.
Result: 1430

Ask: Specify measured Kd for SLIPRLVDF .
Result: 12.7

Ask: Fill in reported Kd for this entry: FMYTKHSML
Result: 0.2

Ask: Look up Kd of SRHQRLHDE and report it.
Result: 453

Ask: Please look at this sequence and report its Kd: MFISLFMIL
Result: 223

Ask: Read off the recorded Kd for ELREIFRRL
Result: 26.5

Ask: Give recorded Kd. DKRMKSLAM
Result: 9.85

Ask: Given the sequence HLYNILNNI , write its reported Kd.
Result: 1970

---

- subject.of.test: HLA-B*08:01
- experimental.protocol: IEDB peptide-MHC binding, purified MHC/direct/fluorescence; filed as Kd, often an IC50 or EC50 that approximates it; bounds were set here for any values at or beyond the usual limits of such assays
- test.conditions: source organism: Variola virus
observable: pKd
API: returns pKd as number; meaning -log10 of concentration in mol/L.

Ask: Give reported pKd value for MPAYIRNTL
Result: 8.10

---

- subject.of.test: HLA-B*57:01
- experimental.protocol: IEDB peptide-MHC binding, purified MHC/direct/fluorescence; filed as Kd, often an IC50 or EC50 that approximates it; bounds were set here for any values at or beyond the usual limits of such assays
- test.conditions: source organism: West Nile virus
pKd: −log10 of the molar value.
observable: pKd

Ask: Give pKd for TRAVGKPLL
Result: ≤ 4.70

---

- subject.of.test: HLA-A*02:11
- experimental.protocol: IEDB peptide-MHC binding, purified MHC/competitive/fluorescence; filed as Kd, often an IC50 or EC50 that approximates it; bounds were set here for any values at or beyond the usual limits of such assays
- test.conditions: source organism: Escherichia coli E110019
observable: Kd

Ask: Give Kd; test system HLA-A*02:11; sequence RAFWGQVQK
Result: ≥ 20 µM

---

- subject.of.test: HLA-B*57:01
- experimental.protocol: IEDB peptide-MHC binding, purified MHC/competitive/fluorescence; filed as Kd, often an IC50 or EC50 that approximates it; bounds were set here for any values at or beyond the usual limits of such assays
- test.conditions: source organism: Mus musculus
pKd: −log10 of the molar value.
observable: pKd

Ask: Complete the entry with pKd for LVDENQSWY
Result: ≤ 4.70

---

- subject.of.test: HLA-B*40:01
- experimental.protocol: IEDB peptide-MHC binding, purified MHC/competitive/fluorescence; filed as Kd, often an IC50 or EC50 that approximates it; bounds were set here for any values at or beyond the usual limits of such assays
- test.conditions: source organism: Acinetobacter baumannii
pKd: −log10 of the molar value.
observable: pKd

Ask: Return reported pKd. Input sequence: SIYAGNTPK
Result: ≤ 4.70

---

- subject.of.test: HLA-A*11:01
- experimental.protocol: IEDB peptide-MHC binding, purified MHC/direct/fluorescence; filed as Kd, often an IC50 or EC50 that approximates it; bounds were set here for any values at or beyond the usual limits of such assays
- test.conditions: source organism: Bacillus licheniformis
observable: Kd

Ask: Give a short answer stating reported Kd for VQIPEKKCF .
Result: ≥ 20 µM

---

- subject.of.test: HLA-B*58:01
- experimental.protocol: IEDB peptide-MHC binding, purified MHC/direct/fluorescence; filed as Kd, often an IC50 or EC50 that approximates it; bounds were set here for any values at or beyond the usual limits of such assays
- test.conditions: source organism: Mycobacterium avium 104
observable: Kd (µM)
Numeric answer only, unit µM assumed.

Ask: Give reported Kd value for VTTPARTAF
Result: 1.1

---

- subject.of.test: HLA-C*14:02
- experimental.protocol: IEDB peptide-MHC binding, purified MHC/direct/fluorescence; filed as Kd, often an IC50 or EC50 that approximates it; bounds were set here for any values at or beyond the usual limits of such assays
- test.conditions: source organism: Francisella tularensis subsp. tularensis FSC198
observable: pKd
Lab note — pKd values are minus log10 of concentrations in M.

Ask: Return pKd for the following sequence: AIYKNTIAY
Result: 6.93

---

- subject.of.test: HLA-B*08:01
- experimental.protocol: IEDB peptide-MHC binding, purified MHC/competitive/radioactivity; filed as Kd, often an IC50 or EC50 that approximates it; bounds were set here for any values at or beyond the usual limits of such assays
- test.conditions: source organism: Dengue virus 4 Philippines/H241/1956
observable: Kd
Returns: string containing the number followed by the unit.

Ask: Fill in Kd for record LMKMKKKTWL
Result: 24.1 nM

---

- subject.of.test: HLA-A*02:01
- experimental.protocol: IEDB peptide-MHC binding, purified MHC/direct/fluorescence; filed as Kd, often an IC50 or EC50 that approximates it; bounds were set here for any values at or beyond the usual limits of such assays
- test.conditions: source organism: Corynebacterium glutamicum
observable: Kd

Ask: Please list Kd recorded for the sequence ATQPVHWFL
Result: 115 nM

---

- subject.of.test: HLA-B*15:01
- experimental.protocol: IEDB peptide-MHC binding, purified MHC/direct/fluorescence; filed as Kd, often an IC50 or EC50 that approximates it; bounds were set here for any values at or beyond the usual limits of such assays
- test.conditions: source organism: Mycobacterium tuberculosis variant bovis BCG str. Pasteur 1173P2
observable: pKd
The read-out pKd is expressed as -log10 of concentration in moles per litre.

Ask: Quick one: give measured pKd for KQRGGYAQF
Result: 6.49

---

- subject.of.test: HLA-B*15:17
- experimental.protocol: IEDB peptide-MHC binding, purified MHC/competitive/fluorescence; filed as Kd, often an IC50 or EC50 that approximates it; bounds were set here for any values at or beyond the usual limits of such assays
- test.conditions: source organism: Hantaan virus 76-118
observable: Kd

Ask: Provide measured Kd value, entry: IRKPKHLYV
Result: ≥ 20 µM
